Quantity kind: melting point

Briefly, melting point measured for Cc1[nH]c(C=C2C(=O)NN=C2c2cnccn2)c(C)c1CCNCc1ccncc1 : 203 to 205 °C

Briefly, melting point measured for CCOC(=O)c1c(C)[nH]c(C=C2C(=O)NN=C2c2ccno2)c1C : 255 to 257 °C

Briefly, melting point measured for COc1ccc(NC2=NNC(=O)C2=Cc2c[nH]c3ccccc23)cc1 : 265 to 267 °C

Briefly, melting point measured for O=C1NN=C(C2CC2)C1=Cc1ccc(-c2ccccc2)[nH]1 : 208 to 210 °C

Briefly, melting point measured for O=C1NN=C(C2CCCC2)C1=Cc1c[nH]c2ccccc12 [Example 247] : 277 to 279 °C

Briefly, melting point measured for CC(C)OC1=NNC(=O)C1=Cc1ncc[nH]1 : 212 to 214 °C

Briefly, melting point measured for CCOC(=O)c1c[nH]c(C=C2C(=O)NN=C2OCC)c1C(=O)OCC : 132 to 134 °C

Briefly, melting point measured for COC(=O)c1ccc(CCC2=NNC(=O)C2=Cc2c[nH]c3ccccc23)cc1 : 259 to 260 °C

Briefly, melting point measured for O=C1NN=C(C2CC2)C1=Cc1cc(Br)c[nH]1 : 210 °C (dec.)

Briefly, melting point measured for CN(C)Cc1c(C=C2C(=O)NN=C2C2CC2)[nH]c2ccccc12 : 202 °C (dec.)

Briefly, melting point measured for Nc1ccc(CCC2=NNC(=O)C2=Cc2cc3ccccc3[nH]2)cc1 : 187 to 189 °C

Briefly, melting point measured for CCOC1=NNC(=O)C1=Cc1cc2c([nH]1)CCC=C2Cl : 177 to 203 °C

Briefly, melting point measured for CCc1ccc(C=C2C(=O)NN=C2OC(C)C)[nH]1 : 119 to 121 °C

Briefly, melting point measured for CCOC(=O)c1c[nH]c(C=C2C(=O)NN=C2C2CC2)c1 : 192 to 194 °C

Briefly, melting point measured for Cc1n[nH]cc1C=C1C(=O)NN=C1OC(C)C : 228 to 230 °C

Briefly, melting point measured for CC(CC1=NNC(=O)C1=Cc1c[nH]c2ccccc12)c1ccccc1 (stereo not drawn) : 253 to 255 °C

Briefly, melting point measured for Cn1cc(C=C2C(=O)NN=C2CCc2ccc(N)cc2)c2ccccc21 : 192 to 193 °C

Briefly, melting point measured for CCOC1=NNC(=O)C1=Cc1cc(Cl)c[nH]1 : 237 to 239 °C

Briefly, melting point measured for Cc1[nH]c(C=C2C(=O)NN=C2c2nc3ccccc3s2)c(C)c1CN1CCOCC1 : 285 °C (dec.)

Briefly, melting point measured for O=C1NN=C(C2CCCCC2)C1=Cc1cn(CCCCO)c2ccccc12 : 226 to 227 °C

Briefly, melting point measured for Cc1[nH]c(C=C2C(=O)NN=C2c2cnccn2)c(C)c1CN1CCCCC1 : 240 to 242 °C

Briefly, melting point measured for Cc1c(CCC(=O)O)c[nH]c1C=C1C(=O)NN=C1Cc1ccccc1 : 270 to 272 °C

Briefly, melting point measured for Cc1ccc(C=C2C(=O)NN=C2c2cccnc2)[nH]1 : 210 to 212 °C

Briefly, melting point measured for CCOC1=NNC(=O)C1=Cc1[nH]c2ccccc2c1CN(C)C : 185 to 187 °C

Briefly, melting point measured for O=C1NN=C(Cc2ccccc2)C1=Cc1c[nH]c2ncccc12 : 274 to 277 °C

Briefly, melting point measured for COC(=O)c1ccc(CCC2=NNC(=O)C2=Cc2cc3ccccc3[nH]2)cc1 : 210 to 212 °C

Briefly, melting point measured for Cc1cc(C)c(C=C2C(=O)NN=C2C2CC2)[nH]1 : 193 to 195 °C

Briefly, melting point measured for O=C1NN=C(CCc2ccc(O)cc2)C1=Cc1c[nH]c2ccccc12 : 271 to 275 °C

Briefly, melting point measured for O=C1NN=C(CCc2ccc([N+](=O)[O-])cc2)C1=Cc1c[nH]c2ccccc12 : 295 to 297 °C

Briefly, melting point measured for CCOC(=O)c1c(C)[nH]c(C=C2C(=O)NN=C2OC(C)C)c1C : 226 to 228 °C

Briefly, melting point measured for Cc1cc(C)c(C=C2C(=O)NN=C2c2cccnc2)[nH]1 : 235 to 238 °C

Briefly, melting point measured for Cn1cc(C=C2C(=O)NN=C2c2ccno2)c2ccccc21 : 271 to 272 °C

Briefly, melting point measured for Cc1c(CCC(=O)O)c[nH]c1C=C1C(=O)NN=C1C1CC1 : 290 °C (dec.)
